composite z-score values for the compounds below.
Molecular target: Fibroblast growth factor 2 (Homo sapiens)
Test: FGF2 binders on small-molecule microarrays, primary screen, biochemical, small-molecule microarray, 635/667 nm fluorescence (AID 1133)
Conditions: small-molecule microarray binding, FGF2, fluorescence 635/667; higher = more signal

Example entries and their recorded answers appear below.
1. COC(=O)c1c2oc(c1C(=O)OC)C(=O)N[C@@H](C(C)C)Cn1nncc1C1(CCCCC1)NC(=O)N[C@H](CO)CC2 = 0.0484
2. C[N+](C)(C)CCCC[C@@H]1NC(=O)[C@@H]2C[C@H](C(=O)NCCCCCNC(=O)CS)[C@H](c3ccc(O)cc3)N2C1=O = 1.19
3. C=CCNC(=O)[C@@H]1[C@H]2C(=O)O[C@H](c3ccccc3)[C@H](c3ccccc3)N2[C@H](c2ccc(O)cc2)[C@@]12C(=O)Nc1ccccc12 = 0.143
4. C[N+](C)(C)CCCCNC(=O)[C@@H]1C[C@@H]2C(=O)NCC(=O)N2[C@@H]1c1cccc(OCCO)c1 = 1.94
5. C=CCC(OC(C)=O)[C@@H]1[C@@H](N(Cc2ccc(-c3cccc(C(F)(F)F)c3)o2)C(=O)c2ccc(-c3ccccc3)cc2)c2cc(OCCCO)ccc2N1C(=O)Cc1ccc(OC)cc1 (stereo partly specified) = -0.196

# evaluate next
Enquiry: // returns reported composite z-score for input COCCOC(=O)N1C(=O)[C@@]2(c3cc(C#CC4(O)CCCCCC4)ccc31)[C@H](c1ccc(O)cc1)N1[C@H](c3ccccc3)[C@H](c3ccccc3)OC(=O)[C@H]1[C@@H]2C(N)=O
Return: 0.308

====

System: Wnt5a (protein binding on small-molecule microarray)
Assay: Wnt5a binders on small-molecule microarray, primary screen, biophysical, 635/667 nm fluorescence (AID 1142);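 further: fluorescence read at 667 nm with signal to noise per printed feature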
Settings: 635 nm fluorescence, higher = more signal
Binning of composite z-score into classes: lo (below 0), mid (0 to below 0.2), hi (0.2 or more)

Answered cases to consult:
1) COc1ccc(C#Cc2ccc3c(c2)[C@]2(C(=O)N3)[C@H](c3ccc(O)cc3)N3[C@H](c4ccccc4)[C@H](c4ccccc4)OC(=O)[C@H]3[C@@H]2C(=O)N2CCN(c3ncccn3)CC2)cc1 = mid
2) COc1ccc([Si](C)(C)[C@@H]2[C@@H](CCn3cc([C@H](O)c4ccccc4)nn3)O[C@]3(C(=O)N(C)c4c(Br)cc(C)cc43)[C@H]2C)cc1 = mid

Enquiry: Category lookup for the compound CC(C)CCC[C@@H](C)[C@H]1CC[C@@]2(C)C3=C(CC[C@]12C)[C@@]1(C)CC[C@H](OC(=O)CCl)C(C)(C)C1CC3 (stereo not given in full)
Return: mid

Enquiry: Category lookup for the compound O=c1n(-c2ccccc2)c(=O)n2n1CC(COc1ccccc1)=C1[C@@H](CCc3ccccc3)OB(O)C[C@@H]12
Return: hi

====

Test: NIH:OVCAR-3 ovarian cancer cell cytotoxicity, dose response, PAX8 inhibitor project, plate reader, dry powder samples (AID 743044)
Conditions: NIH:OVCAR-3 ovarian cancer cell viability; at 35 µM, stronger effect = lower value unless noted
Entries with a potency or affinity are not part of this list. Results filed as inconclusive are left out. The source made the active and inactive calls. No rule for the calls is given here.
max activity values for the molecules below.

1) O=C(C[C@H]1C[C@@H]2c3cc(NS(=O)(=O)c4ccc(F)cc4)ccc3O[C@@H]2[C@@H](CO)O1)NCc1ccc(-c2ccccc2)cc1 = -28.3% (inactive)
2) O=C(Cc1ccccn1)N[C@@H]1CC[C@@H](CCn2cc(-c3ccccc3)nn2)O[C@H]1CO = 6.29% (inactive)
3) COc1ccc(S(=O)(=O)Nc2ccc3c(c2)C(=O)N([C@@H](C)CO)C[C@@H](C)[C@H](CN(C)Cc2ccc(C(F)(F)F)cc2)OCCCC[C@H](C)O3)cc1 = -37.4% (inactive)

Enquiry: // returns reported max activity for input C[C@@H]1CN([C@H](C)CO)C(=O)c2cc(NC(=O)Nc3ccc(F)cc3)ccc2O[C@@H](C)CCCCO[C@H]1CN(C)C(=O)Nc1ccc(F)cc1
Return: 13.6% (inactive)

Enquiry: // returns reported max activity for input O=S(=O)(c1ccccc1)N1CCCCN2[C@H](CO)[C@H](c3ccc(-c4ccccc4F)cc3)[C@H]2C1
Return: -5.95% (inactive)

Enquiry: // returns reported max activity for input C[C@@H]1CN([C@@H](C)CO)C(=O)c2cc(NS(=O)(=O)c3ccc(F)cc3)ccc2O[C@@H]1CN(C)Cc1ccc(C(F)(F)F)cc1
Return: -27.7% (inactive)

====

Experiment: mitochondrial membrane potential change in A549 cells, profiling panel, cell-based, JC-1 fluorescence, basal, 24 h, 100 nL (AID 1138);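 further: A549 lung adenocarcinoma cells under basal conditions with no added stimulus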
Conditions: higher = more signal
z-score values for the compounds below.
Form: value (number only, do not type unit).

1. CC(C)C(CO)N1C(=O)[C@@H]2C3C(=O)OCCC/C=C\[C@H]3OC23C=CCN(C(C)C)C(=O)[C@@H]13 (some centres not stated) = 0.743
2. NC(=O)N1C(=O)C2C(C1=O)C1C=C(c3ccc(CO)cc3)C2C(C2CC2)N1Cc1cc2c(cc1Br)OCO2 (configuration not stated) = 1.96
3. C=CCC(OC(C)=O)[C@@H]1[C@@H](N(Cc2cccc3ccccc23)C(=O)c2cccc3ccccc23)c2cc(OCCCO)ccc2N1C(=O)Cc1ccc(OC)cc1 (some centres not stated) = 0.924
4. C=C(C1=CCN(S(=O)(=O)c2ccc(C)cc2)C1)[C@@H](OC(C)=O)[C@@H]1CCCN1S(=O)(=O)c1ccccc1[N+](=O)[O-] = 1.7
5. O=C(N1CCCCC1)[C@@]1(Cc2ccccc2)N=C(c2ccc(OCCCO)cc2)O[C@H]1c1ccccc1 = -0.741

Enquiry: // returns reported z-score for input CC(C)CCC[C@@H](C)[C@H]1CC[C@@]2(C)C3=C(CC[C@]12C)[C@@]1(C)CC[C@H](OC(=O)CCl)C(C)(C)C1CC3 (some centres not stated)
Return: 1.35

Enquiry: // returns reported z-score for input COCCOC(=O)N1C(=O)[C@@]2(c3ccccc31)[C@H](C(=O)Nc1nc3ccccc3s1)[C@H]1C(=O)O[C@H](c3ccccc3)[C@H](c3ccccc3)N1[C@@H]2c1ccc(O)cc1
Return: -2.31

====

Assay: HepG2 cell viability effects, profiling panel, calcein-AM fluorescence, 48 h, basal (AID 1164)
Conditions: higher = more signal
z-score values for the molecules below.
Form: value (number only, do not type unit).

Example entries and their recorded answers appear below.
1) CCN(CC)c1ccc(N2CC=CC34O[C@@H]5C=CCOC(=O)[C@@H]5[C@H]3C(=O)N(C(CO)C(C)C)[C@@H]4C2=O)cc1 (some centres not stated) = 0.121
2) C=C(COC)/C(=C/C[C@H](OC(C)=O)c1ccc(CO)o1)c1cnc2ccccc2c1 = -0.957
3) CN1C=C(C(=O)OCCS(C)(=O)=O)C(C(=O)OCCS(C)(=O)=O)=CC(CCCO)=CC1c1cccs1 (configuration not stated) = 0.615
4) C=CCC(OC(C)=O)[C@@H]1[C@@H](N(Cc2cc3ccccc3o2)C(=O)c2ccc(-c3ccccc3)cc2)c2cc(OCCCO)ccc2N1C(=O)c1ccc(-c2ccccc2)cc1 (some centres not stated) = 0.249
5) CCCCCN1CC=CC23O[C@@H]4/C=C\CCC(C)OC(=O)C4[C@H]2C(=O)N(CCO)[C@@H]3C1=O (some centres not stated) = 0.277
6) [N-]=[N+]=NCc1ccccc1C[C@@]1(C(=O)NCc2ccccc2)N=C(c2ccc(OCCCO)cc2)O[C@@H]1c1ccccc1 = -1.34

# evaluate next
Enquiry: // returns reported z-score for input NC(=O)N1C(=O)C2C(C1=O)C1C=C(c3ccc(CO)cc3)C2C(C2CC2)N1Cc1cc2c(cc1Br)OCO2 (configuration not stated)
Return: -0.282

====

z-score values for the compounds below.
Assay: E. coli DRC41 culture turbidity changes, primary screen, E. coli filamentation inducer project, strain DRC41, OD650, 48 h (AID 1152);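 further: E. coli MC1000 strain DRC41 lacking acrAB efflux pump and sulA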
Settings: E. coli DRC41 (acrAB sulA), higher = more signal, called active from +8 up or from −8 down
Form: value (number only, do not type unit).

Example entries and their recorded answers appear below.
1) COc1ccc(C(=O)Nc2cccc(CN3C(=O)[C@@]4(O[C@@H](CCO)[C@H]([Si](C)(C)c5ccc(OC)cc5)[C@H]4C)c4ccccc43)c2)cc1 = 0.677
2) CC(C)N1CC=CC23O[C@@H]4/C=C\CCCOC(=O)C4[C@H]2C(=O)N(CCCO)[C@@H]3C1=O (some centres undefined) = 1.71
3) O=C(O)[C@H]1C[C@H]2C(=O)N[C@@H](Cc3ccccc3)C(=O)N2[C@H]1c1ccc(O)cc1 = 0.763
4) C=C(COC)/C(=C/C[C@H](OC(C)=O)c1ccc(CO)o1)c1cnc2ccccc2c1 = 1.23
5) COc1ccc([Si](C)(C)[C@H]2[C@H](CC(=O)N(CCO)Cc3ccccc3)O[C@@]3(C(=O)N(Cc4ccc(N5CCOC5=O)cc4)c4ccccc43)[C@@H]2C)cc1 = 1.22
6) O=C1O[C@@H](c2ccccc2)[C@@H](c2ccccc2)N2[C@@H](c3ccc(OCCO)cc3)[C@]3(C(=O)Nc4ccc(C#CC5(O)CCCCCC5)cc43)[C@@H](C(=O)NC[C@H](O)c3ccccc3)[C@H]12 = 2.35

Enquiry: // returns reported z-score for input C=C(C1=CCN(S(=O)(=O)c2ccc(C)cc2)C1)[C@@H](OC(C)=O)[C@@H]1CCCN1S(=O)(=O)c1ccccc1[N+](=O)[O-]
Return: 2.47

Measured values drawn from PubChem BioAssay for this set.
